testedOn: T1, human GPC3 on cells (human, UniProt P51654 25-554)
T1 construct: whole, on cells; over-expressed on CHOK1 cells or endogenous on HEPG2, Hep3B and Huh-7 hepatocellular carcinoma cells; the cell line is named under assay; also called GPC3-CHOK1 cells; human GPC3 over-expressed CHOK1 cells
assayInfo: FACS, HEPG2 cells
reportedMetric: EC50 (nM)
Write the value in nM as a bare number.

Some solved entries appear below for comparison.
binder	numericResult
Hu 52H5D3B8-7/8 CDRs with Y035 FRs (antibody, V domains shown) VH: EVQLVQSGAEVKKPGASVKVSCKASGYTHSDYEMHWVRQAPGQGLEWMGAIHPGSGGTAYNQKFKGRVTITADKSTSTAYMELSSLRSEDTAVYYCARFYSYAYWGQGTLVTVSA VL: DIVMTQTPLSLPVTPGEPASISCRSSQSLVHSNGNTYLQWYLQKPGQSPQLLIYKVSNRFSGVPDRFSGSGSGTDFTLKISRVEAEDVGVYYCSQSIHVPYTFGQGTKLEIKR	1.16
Hu 52H5D3B8-8 (antibody, V domains shown, humanized 52H5D3B8; also called 52H5D3B8 VH3 + VL1) VH: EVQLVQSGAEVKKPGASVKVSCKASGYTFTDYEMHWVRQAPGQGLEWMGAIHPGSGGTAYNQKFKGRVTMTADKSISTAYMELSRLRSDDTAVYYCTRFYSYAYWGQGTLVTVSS VL: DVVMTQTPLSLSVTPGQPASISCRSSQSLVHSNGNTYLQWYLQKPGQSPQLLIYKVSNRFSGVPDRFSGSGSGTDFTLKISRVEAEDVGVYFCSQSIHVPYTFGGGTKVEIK	0.693
Y035 CDRs with Hu 52H5D3B8-7 FRs (antibody, V domains shown) VH: EVQLVQSGAEVKKPGASVKVSCKASGYTFTDYEMHWVRQAPGQGLEWMGAIHPGSGDTAYNQRFKGRVTMTADKSISTAYMELSRLRSDDTAVYYCTRFYSYAYWGQGTLVTVSS VL: DVVMTQTPLSLSVTPGQPASISCRSSQSLVHSNGNTYLQWYLQKPGQSPQLLIYKVSNRFSGVPDRFSGSGSGTDFTLKISRVEAEDVGVYYCSQSIYVPYTFGGGTKVEIK	1.05

GET /value?item= Hu 52H5D3B8-7 (antibody, V domains shown, humanized 52H5D3B8; also called 52H5D3B8 VH3 + VL0) VH: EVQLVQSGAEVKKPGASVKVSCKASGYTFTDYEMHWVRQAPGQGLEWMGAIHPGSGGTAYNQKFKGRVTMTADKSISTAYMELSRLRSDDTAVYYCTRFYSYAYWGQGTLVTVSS VL: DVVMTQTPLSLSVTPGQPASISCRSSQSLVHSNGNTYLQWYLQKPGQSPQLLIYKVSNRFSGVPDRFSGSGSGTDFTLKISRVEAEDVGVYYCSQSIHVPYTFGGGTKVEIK &field=EC50 returns 0.757
